Cited source: PubChem BioAssay (EPA / NIEHS)

experiment: ACEA_AR_antagonist_AUC_viability: ACEA Biosciences xCELLigence Real-Time Cell Analysis on Androgen Receptor Antagonism for Viability (AID 2283776);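 also: 22Rv1 human prostate cancer cells growing on impedance electrode plates; area under impedance growth curve at 80 h after dosing as viability; hits lower the growth signal relative to DMSO meaning cytotoxicity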
Inconclusive results are not listed. Calls of active or inactive are those of the source. The calls were made as follows: active = hit-call score of the fitted dose curve at least 0.9, where 1 is the maximum; inconclusive = response in the unintended direction; inactive = score below 0.9.
Your answer must be one of the following: Y for active, N for inactive

CCCCCC[C@@H](O)C/C=C\CCCCCCCC(=O)OCC(O)CO (stereo not given in full)    N
Cc1c(C(=O)c2c[nH]n(C)c2=O)ccc(S(C)(=O)=O)c1C1=NOCC1    N
CC(C)c1cc(C(C)C)cc(C(C)C)c1    N

Query: recorded result category for `CCCCCCOc1ccc(N)cc1` in this test
N

Please let me know the test result on file for `CO[Si](C)(C)OC` .
N

Can you look up the reported call for `CC(C)(c1ccccc1)c1ccc(Nc2ccc(C(C)(C)c3ccccc3)cc2)cc1` for me?
Y

Answer briefly: the call reported for `COC(=O)c1ccccc1C` in this assay.
N

For this compound, state the assay outcome: `CC(=O)OCc1ccccc1`
N

Would you mind telling me which call this test gave N#Cc1ccc(C2CCCc3cncn32)cc1 (stereo not given) ?
N

Per the assay record, what outcome was assigned to `CCCCCCCCCCCCCC(=O)OC(C)C` ?
N
